Assay: chemical genetic growth profiling, strain panel (AID 1159580);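 also: tested at 20 µM; growth read once vehicle control cultures reached saturation at 30 °C; 1 = growth at the plate median or of vehicle wells; lower values mean less growth of the strain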
Settings: S. cerevisiae deletion strains, growth OD, locus YKL009W, strain mrt4
Among all 5,500 compounds or so, about 2,000 (36%) were called active. Not shown: some 18% with an inconclusive outcome. Rule as the data show it: active = normalized growth mostly below about 0.91 (no sharp cut-off); inconclusive = no clear call, values can overlap the other calls; inactive = mostly above about 0.92. Some of the results follow.
Would you mind answering with one of these outcomes? active, inactive

For C=C1C2CC[C@H]3[C@]4(C)C[C@H](OC5OC(CO)C(OS(=O)(=O)O)C(OS(=O)(=O)O)C5OC(=O)CC(C)C)C[C@@H](C(=O)O)[C@H]4CC[C@]3(C2)[C@H]1O (stereo not given in full) , what call appears in the results of this test?
inactive

For COc1cc(O)c(C(=O)/C=C/c2ccccc2)c(OC)c1 , what call appears in the results of this test?
inactive

For COc1ccc2c3c1O[C@H]1C[C@@H](O)C=C[C@@]31CCN(C)C2 , what call appears in the results of this test?
inactive

For N=c1ccn2c(n1)O[C@@H]1C2O[C@H](CO)[C@H]1O (stereo not given in full) , what call appears in the results of this test?
inactive

For COC1=CC(=O)C[C@@H](C)[C@]12Oc1c(Cl)c(OC)cc(OC)c1C2=O , what call appears in the results of this test?
inactive

For CC1CC2C3CC(F)C4=CC(=O)C=CC4(C)C3(F)C(O)CC2(C)C1(O)C(=O)CO (stereo not given) , what call appears in the results of this test?
inactive

---

The entries below are paired with their reported normalized growth.
Assay: chemical genetic growth profiling, strain panel (AID 1159580);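 also: tested at 20 µM; growth read once vehicle control cultures reached saturation at 30 °C; 1 = growth at the plate median or of vehicle wells; lower values mean less growth of the strain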
Settings: S. cerevisiae deletion strains, growth OD, locus YER015W, strain faa2, stronger effect = lower value
In all, about 5,500 compounds went through this assay and about 2,000 (36%) were called active. Roughly 18% stayed inconclusive and do not appear here. The list shows a part of the results.
Give only the figure.

Here's what some known entries look like.
// recorded normalized growth for CC1(C)OC(=O)NC1=O : 1.01

// recorded normalized growth for CCOC(=O)C(=O)C1(C(=O)OCC)Oc2cc(OC)cc(OC)c2C(=O)C1c1ccccc1 (configuration not stated) : 0.952

// recorded normalized growth for CC(C(=O)O)c1cccc(C(=O)c2ccccc2)c1 (configuration not stated) : 0.966

// recorded normalized growth for CN1CCC(=C2c3ccccc3CCc3sccc32)CC1 : 0.967

Next:
// recorded normalized growth for O=C(O)c1c2ccccc2cc2ccccc12 : 1.01

// recorded normalized growth for O=C(O)c1cc2ccccc2[nH]1 : 0.989

// recorded normalized growth for COc1ccc(OC)c(C(O)C(C)N)c1 (configuration not stated) : 0.99

---

Test: chemical genetic growth profiling, strain panel (AID 1159580);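 also: tested at 20 µM; growth read once vehicle control cultures reached saturation at 30 °C; 1 = growth at the plate median or of vehicle wells; lower values mean less growth of the strain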
Settings: S. cerevisiae deletion strains, growth OD, locus YJL164C, strain tpk1, stronger effect = lower value
The whole screen tested about 5,500 compounds, of which about 2,000 (36%) were called active. About 18% were inconclusive and are not listed. The list shows a part of the results.
The entries below are paired with their reported normalized growth.
Give only the figure.

Here's what some known entries look like.
// recorded normalized growth for CCOC(=O)c1c(C)c(Cl)c(O)c(Cl)c1O : 0.467

// recorded normalized growth for CCN(CC)CCNC(=O)c1cc(Br)c(N)cc1OC : 1.01

// recorded normalized growth for Cc1cccc(C)c1OCC(C)N (stereo unspecified) : 1.01

// recorded normalized growth for CN(C)CC/C=C1\c2ccccc2Sc2ccc(Cl)cc21 : 0.878

Next:
// recorded normalized growth for CCOC(=O)c1c(C)cc(O)c(C=O)c1O : 0.587

// recorded normalized growth for Cc1cc(O)c(C)c(O)c1C(=O)O : 1.01

Sourced from PubChem BioAssay AID1159580
